FYI, the data here is from the supplement of paper PMC13207355.

Measured surviving fraction, listed per entry.
System: E21 (patient-derived glioblastoma stem cells of mesenchymal subtype);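 further: nuclei counted by high-content imaging of Hoechst-stained cells in laminin-coated 384-well plates, relative to 0.1% DMSO vehicle wells, with staurosporine as cell-death control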
Assay: surviving fraction (nuclei count normalised to DMSO); higher = more cells surviving (less toxic)
Settings: 333.333 nM; exposure time: 72 h
quantity: surviving fraction

>>> endpointresult("OCCN1C[C@H](O)[C@@H](O)[C@H](O)[C@H]1CO [Miglitol]")
0.949
>>> endpointresult("O=c1c2ccccc2[se]n1-c1ccccc1 [Ebselen]")
1.1
>>> endpointresult("COc1cc([C@@H]2c3cc4c(cc3[C@@H](O[C@@H]3O[C@@H]5CO[C@@H](C)O[C@H]5[C@H](O)[C@H]3O)[C@H]3COC(=O)[C@H]23)OCO4)cc(OC)c1O [Etoposide]")
0.588
>>> endpointresult("C[C@@H](O)[C@H]1C(=O)N2C(C(=O)O)=C(S[C@@H]3CN[C@H](C(=O)N(C)C)C3)[C@H](C)[C@H]12 [Meropenem]")
1.02
>>> endpointresult("CC(C)C[C@H](NC(=O)[C@H](Cc1ccccc1)NC(=O)c1cnccn1)B(O)O [Bortezomib]")
0.00297
